Where these numbers come from: PubChem BioAssay AID1851

Target: Cytochrome P450 1A2 (Homo sapiens)
Assay: Cytochrome panel assay with activity outcomes
Conditions: recombinant CYP, pro-luciferin dealkylation, luminescence, p450-cyp1a2; series mostly up to 57.1 µM
The campaign covered roughly 16,000 compounds. About 5,700 (36%) were called active. About 24% were inconclusive and are not listed. Calls follow the shape of the dose curve; as a rule, active = well fitted curve in the direction sought with a large enough effect; inconclusive = small, poorly fitted or top-dose-only effect, or effect the other way; inactive = no such curve, though single readings can be large or run the other way. The list shows a part of the results.
Returns: one label drawn from active, inactive

What did the test return for CC(C)(C)NC[C@H](O)c1cc(O)cc(O)c1 ?
inactive

Same thing, different compound: O=C1NCCN1Cc1ccccc1F
active

Can you handle CSc1nncc(-c2ccc(F)c(F)c2)n1 next?
active

// query: O=c1cc(CSc2nnc(-c3cccnc3)n2-c2ccccc2F)nc2sccn12
inactive

====

Molecular target: Cytochrome P450 1A2 (Homo sapiens) (UniProt P05177)
Sequence (P05177 whole entry, looked up): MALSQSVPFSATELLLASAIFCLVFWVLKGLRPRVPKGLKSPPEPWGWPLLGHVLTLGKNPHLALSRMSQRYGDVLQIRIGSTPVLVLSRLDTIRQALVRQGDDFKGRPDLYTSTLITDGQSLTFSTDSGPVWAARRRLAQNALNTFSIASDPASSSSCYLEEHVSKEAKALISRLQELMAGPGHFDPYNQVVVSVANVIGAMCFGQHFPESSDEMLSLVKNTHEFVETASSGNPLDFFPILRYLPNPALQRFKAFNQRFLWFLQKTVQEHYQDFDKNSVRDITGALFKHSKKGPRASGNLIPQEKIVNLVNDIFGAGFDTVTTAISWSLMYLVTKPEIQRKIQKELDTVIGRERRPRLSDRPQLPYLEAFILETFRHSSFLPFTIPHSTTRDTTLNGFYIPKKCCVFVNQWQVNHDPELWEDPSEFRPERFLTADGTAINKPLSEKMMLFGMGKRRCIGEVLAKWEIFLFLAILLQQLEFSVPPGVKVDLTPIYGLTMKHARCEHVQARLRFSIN
Assay: Cytochrome panel assay with activity outcomes
Details: recombinant CYP, pro-luciferin dealkylation, luminescence, p450-cyp1a2; series mostly up to 57.1 µM
Among all 16,000 compounds or so, about 5,700 (36%) were called active. Not shown: some 24% with an inconclusive outcome. Calls come from the whole dose curve; as a rule, active = well fitted curve in the direction sought with a large enough effect; inconclusive = small, poorly fitted or top-dose-only effect, or effect the other way; inactive = no such curve, though single readings can be large or run the other way. The list shows a part of the results.
Pick one and only one: T (active), F (inactive)

>>> cat("CCCCCN(CCCCC)C(=O)[C@H](CCC(=O)O)NC(=O)c1ccc(Cl)c(Cl)c1")
"F"

Test call, this compound: O=c1cnc2cnc(OCc3ccccc3)nc2n1Cc1ccc(F)cc1
T

Item: COCC(=O)N1CCC[C@@]2(CCN(C(=O)Nc3ccc(OC)cc3)C2)C1
F

Proceed to CC1CCN(c2ccccc2NC(=S)NC(=O)c2cccs2)CC1
T

Same for CN(C1CCCCC1)S(=O)(=O)c1ccc(NC(=S)NC(=O)c2cccs2)cc1
F

Now give it for COc1ccc(/C(O)=C2/C(=O)C(=O)N(Cc3cccnc3)C2c2ccco2)cc1OC (stereo not given) too.
F

Also Cn1c(=O)c2cc(S(=O)(=O)NCCC(=O)NCc3ccccc3Cl)ccc2n(C)c1=O ?
F

Would you kindly repeat that for O=C(NC(=S)Nc1cccc(Cl)c1N1CCCCC1)c1ccco1 ?
T

Another compound to look at: Cn1c(=O)c2cn(-c3ccccc3)cc2n(C)c1=O
T

For COc1ccc(C(NC(=O)c2ccc(-c3ccccc3)cc2)c2ccccc2)cc1 (stereo not given) then?
F

====

Biological target: Cytochrome P450 1A2 (Homo sapiens)
Assay: Cytochrome panel assay with activity outcomes
Conditions: recombinant CYP, pro-luciferin dealkylation, luminescence, p450-cyp1a2; series mostly up to 57.1 µM
The whole screen tested about 16,000 compounds, of which about 5,700 (36%) were called active. Another 24% or so got no clear call; they are omitted. The call rests on the fitted dose curve; in most records, active means well fitted curve in the direction sought with a large enough effect; inconclusive means small, poorly fitted or top-dose-only effect, or effect the other way; inactive means no such curve, though single readings can be large or run the other way. Some of the results follow.
Lab note: assign the record to one of yes (1) = active, no (0) = inactive

Here's what some known entries look like.
>>> cat("Cc1ccnn2cc3c(=O)n(C)c(=O)n(C)c3c12")
"yes (1)"
>>> cat("CCCCNc1nc(SC)nc2nc[nH]c12")
"yes (1)"
>>> cat("CC(=O)Nc1ccc(N2C(=O)CC(c3ccccc3)CC2=O)cc1")
"no (0)"
>>> cat("Cc1ccc(C2CC2C(=O)NN)cc1 (stereo unspecified)")
"yes (1)"
>>> cat("Cc1c(-c2ccc(O)cc2)nn(-c2ccc(O)cc2)c1-c1ccc(OCCN2CCCCC2)cc1")
"yes (1)"
>>> cat("CC(=O)N[C@H](c1ccccc1)[C@@]1(C)C[C@@H]1[C@@H](C)C(=O)Nc1ccc2ccccc2c1")
"yes (1)"
>>> cat("COc1ccc(/C=N/NC(=O)CCCOc2ccc(Cl)cc2Cl)cc1[N+](=O)[O-]")
"yes (1)"
>>> cat("CC[C@@H]1CN2CCc3cc(OC)c(OC)cc3[C@H]2C[C@@H]1C[C@H]1NCCc2cc(OC)c(OC)cc21")
"no (0)"

Per the records of this test, what outcome belongs to C[C@@H](C(=O)Nc1ccc2ccccc2c1)[C@@H]1C[C@@]1(C)[C@@H](NC(=O)c1ccncc1Cl)c1ccccc1 ?
yes (1)

Another molecule to look at: CC1CCN(S(=O)(=O)c2ccc3c(c2)C(=NO)c2cc(S(=O)(=O)N4CCC(C)CC4)ccc2-3)CC1
no (0)

What about Cc1noc(C)c1-c1nccc(NCc2ccccc2)n1 ?
yes (1)

Please answer likewise for C[C@@H](C(=O)Nc1ccc2ccccc2c1)[C@@H]1C[C@@]1(C)[C@@H](N)c1ccccc1
yes (1)

Please answer likewise for C[C@@H](C(=O)Nc1ccc2ccccc2c1)[C@H]1C[C@]1(C)[C@H](NC(=O)Oc1ccc(F)cc1)c1ccccc1
no (0)

What do we get for COCCCNC(=O)C(=O)N/N=C/c1ccc(OCC(=O)Nc2cccc(Cl)c2C)c(OC)c1 ?
no (0)

Could you do the same for Cc1noc(C)c1-c1nccc(NCc2cccs2)n1 , please?
yes (1)

What do you have for CC1(C)CC(=O)C/C(=N/NC(=O)CCCOc2ccc(Cl)cc2Cl)C1 ?
yes (1)

Please answer likewise for CC(C)C(=O)Nc1ccc(C(=O)NNC(=O)CCCOc2ccc(Cl)cc2Cl)cc1
no (0)

Same thing, different molecule: COCC(=O)N1CCC2(CCCN(Cc3ccccc3)C2)CC1
no (0)

How about COC(=O)CCC(=O)NNC(=O)CCCOc1ccc(Cl)cc1Cl ?
yes (1)

Query COC(=O)N[C@H](c1ccccc1)[C@@]1(C)C[C@@H]1[C@@H](C)C(=O)Nc1ccc2ccccc2c1 next
yes (1)

How about Cc1noc(C)c1C(=O)N1CCC2(CCN(Cc3ccccc3)CC2)CC1 ?
no (0)
